measuredOn: UniProt:P51449
assayText: Inverse agonist activity at human recombinant GST-tagged RORgammat ligand binding domain assessed as effect on receptor-biotin tagged TRAP220 co-activator peptide interaction using 10 nM GST-RORgamma LBD by FRET-based assay
pIC50: −log10 of the molar value.
Returns one of MET or NOT MET; MET when pIC50 is >= 6.

| compoundSmiles | categoryLabel |
| --- | --- |
| CN(C(=O)c1c(F)cccc1Cl)c1ccc(-c2cc(C(N)=O)ccc2Cl)cc1C(F)(F)F | MET |
| CN(C(=O)c1c(F)cccc1Cl)c1ccc(-c2cc(C(N)=O)ccc2Cl)cc1 | NOT MET |
| CN(C(=O)c1c(F)cccc1Cl)c1ccc(-c2cc(C(N)=O)ccc2Cl)cc1Cl | NOT MET |
| Cc1cc(-c2cc(C(N)=O)ccc2Cl)ccc1N(C)C(=O)c1c(F)cccc1Cl | NOT MET |
| COc1cc(-c2cc(C(N)=O)ccc2Cl)ccc1N(C)C(=O)c1c(F)cccc1Cl | MET |

###

measuredOn: Nuclear receptor ROR-gamma (Homo sapiens)
Sequence (P51449 whole entry): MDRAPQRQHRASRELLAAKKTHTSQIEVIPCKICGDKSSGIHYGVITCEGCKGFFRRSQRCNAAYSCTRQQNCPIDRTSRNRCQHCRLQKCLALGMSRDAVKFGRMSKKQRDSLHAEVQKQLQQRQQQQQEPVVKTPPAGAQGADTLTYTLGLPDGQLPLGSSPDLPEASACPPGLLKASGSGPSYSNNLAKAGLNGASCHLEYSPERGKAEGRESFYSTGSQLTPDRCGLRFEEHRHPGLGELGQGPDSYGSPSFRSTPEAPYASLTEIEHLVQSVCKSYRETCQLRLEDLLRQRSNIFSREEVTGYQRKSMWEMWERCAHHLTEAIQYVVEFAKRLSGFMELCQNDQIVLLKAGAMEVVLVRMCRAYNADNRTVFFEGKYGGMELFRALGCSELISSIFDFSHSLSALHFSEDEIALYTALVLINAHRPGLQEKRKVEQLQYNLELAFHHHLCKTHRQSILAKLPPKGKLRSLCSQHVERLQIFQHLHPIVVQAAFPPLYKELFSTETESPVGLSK
assayText: Inverse agonist activity at human recombinant GST-tagged RORgammat ligand binding domain assessed as effect on receptor-biotin tagged TRAP220 co-activator peptide interaction using 10 nM GST-RORgamma LBD by FRET-based assay
pIC50: −log10 of the molar value.
Form field: pIC50 (one value per entry).
measuredEndpoint: pIC50

| compoundSmiles | measuredOn | measuredEndpoint | quantitativeResult |
| --- | --- | --- | --- |
| CCN(C(=O)c1c(F)cccc1Cl)c1ccc(-c2cc(C(N)=O)ccc2Cl)cc1OC | Nuclear receptor ROR-gamma (Homo sapiens) | pIC50 | 5.82 |
| CCc1cc(-c2cc(C(N)=O)ccc2Cl)ccc1N(C)C(=O)c1c(F)cccc1Cl | Nuclear receptor ROR-gamma (Homo sapiens) | pIC50 | 6.14 |
| CN(C(=O)c1c(F)cccc1Cl)c1ccc(-c2cc(C(N)=O)ccc2Cl)cc1Br | Nuclear receptor ROR-gamma (Homo sapiens) | pIC50 | 6.09 |
| CCN(C(=O)c1c(F)cccc1Cl)c1ccc(-c2cc(C(N)=O)ccc2Cl)cc1 | Nuclear receptor ROR-gamma (Homo sapiens) | pIC50 | 5.89 |
